# Measurement Target: T1, Rhesus SLC34A2 (Rhesus, UniProt F7HDA3 1-690)
# T1 construct: whole, on cells
# T1 sequence: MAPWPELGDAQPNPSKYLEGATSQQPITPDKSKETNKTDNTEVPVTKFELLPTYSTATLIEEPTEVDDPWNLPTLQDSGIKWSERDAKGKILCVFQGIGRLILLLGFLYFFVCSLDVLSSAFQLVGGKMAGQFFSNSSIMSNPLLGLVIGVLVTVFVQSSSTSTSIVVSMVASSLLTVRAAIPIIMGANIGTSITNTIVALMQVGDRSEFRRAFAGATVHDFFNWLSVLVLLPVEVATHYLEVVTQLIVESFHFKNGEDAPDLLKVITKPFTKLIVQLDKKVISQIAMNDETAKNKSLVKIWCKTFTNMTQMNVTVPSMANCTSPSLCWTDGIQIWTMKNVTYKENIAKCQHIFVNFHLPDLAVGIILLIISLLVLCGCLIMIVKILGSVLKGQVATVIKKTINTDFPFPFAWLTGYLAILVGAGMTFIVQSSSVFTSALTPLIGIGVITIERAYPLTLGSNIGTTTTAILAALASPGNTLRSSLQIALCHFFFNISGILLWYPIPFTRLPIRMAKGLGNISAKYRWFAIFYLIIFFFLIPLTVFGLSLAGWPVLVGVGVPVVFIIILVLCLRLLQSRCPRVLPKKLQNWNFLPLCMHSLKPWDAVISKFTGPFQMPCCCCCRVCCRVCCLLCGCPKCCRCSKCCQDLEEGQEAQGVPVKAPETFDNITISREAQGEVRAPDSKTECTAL
# Protocol Notes: FACS, HEK293/Rhesus SLC34A2 cells
Define the label as yes (1) when Top (MFI) is strictly less than 10000 MFI and as no (0) in all remaining cases.

# count of solved cases: 5
stdin: Does the reported Top (MFI) of xi91C9F1 hIgG1 (antibody, V domains shown, chimeric, hIgG1) VH: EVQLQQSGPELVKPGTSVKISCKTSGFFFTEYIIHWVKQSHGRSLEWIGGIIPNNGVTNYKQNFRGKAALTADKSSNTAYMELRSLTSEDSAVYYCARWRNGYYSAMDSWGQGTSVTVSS VL: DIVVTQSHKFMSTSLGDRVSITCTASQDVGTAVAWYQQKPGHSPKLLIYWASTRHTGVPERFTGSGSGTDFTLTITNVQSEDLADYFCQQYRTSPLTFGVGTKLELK stay below 10000 MFI?
stdout: no (0)

stdin: Input 30H9B8F9.p1.z6 hIgG1 (antibody, V domains shown, humanized hIgG1) VH: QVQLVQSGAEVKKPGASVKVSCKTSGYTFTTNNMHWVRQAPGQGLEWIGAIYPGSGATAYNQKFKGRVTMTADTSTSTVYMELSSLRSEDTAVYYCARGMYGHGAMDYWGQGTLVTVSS VL: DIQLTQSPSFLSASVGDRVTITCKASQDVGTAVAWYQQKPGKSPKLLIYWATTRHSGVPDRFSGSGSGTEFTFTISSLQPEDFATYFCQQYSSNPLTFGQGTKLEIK ; condition: Top (MFI) strictly below 10000 MFI. Does it hold?
stdout: no (0)

stdin: Determine if 63A11D5B4.p1.z5 hIgG1 (antibody, V domains shown, humanized hIgG1) VH: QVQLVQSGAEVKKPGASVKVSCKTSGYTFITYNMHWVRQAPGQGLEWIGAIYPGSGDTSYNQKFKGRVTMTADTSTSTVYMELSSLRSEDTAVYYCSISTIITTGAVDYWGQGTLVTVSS VL: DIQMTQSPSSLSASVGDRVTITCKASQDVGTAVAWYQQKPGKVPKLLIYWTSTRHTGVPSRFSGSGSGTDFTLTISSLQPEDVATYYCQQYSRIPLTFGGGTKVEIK shows Top (MFI) strictly lower than 10000 MFI.
stdout: no (0)

stdin: Regarding 91C9F1.p1.z7 hIgG1 (antibody, V domains shown, humanized hIgG1) VH: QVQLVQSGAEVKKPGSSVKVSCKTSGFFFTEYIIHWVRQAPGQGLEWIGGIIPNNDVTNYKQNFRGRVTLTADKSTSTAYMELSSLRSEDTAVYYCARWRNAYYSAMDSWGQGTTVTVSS VL: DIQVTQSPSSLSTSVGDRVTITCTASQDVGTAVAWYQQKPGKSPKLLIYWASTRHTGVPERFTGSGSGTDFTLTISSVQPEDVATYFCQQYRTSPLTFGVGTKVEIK , kindly confirm whether its Top (MFI) is beneath 10000 MFI.
stdout: yes (1)

stdin: In plain terms, does 30H9B8F9.p1.z5 hIgG1 (antibody, V domains shown, humanized hIgG1) VH: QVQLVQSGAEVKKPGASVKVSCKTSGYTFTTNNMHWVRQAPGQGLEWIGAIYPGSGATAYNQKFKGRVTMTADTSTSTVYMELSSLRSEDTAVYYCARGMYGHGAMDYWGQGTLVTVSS VL: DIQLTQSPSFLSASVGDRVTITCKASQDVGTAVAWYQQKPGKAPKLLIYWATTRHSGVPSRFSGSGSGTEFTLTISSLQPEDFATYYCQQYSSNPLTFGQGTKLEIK come in under 10000 MFI for Top (MFI)?
stdout: no (0)

***
stdin: # check: Top (MFI) < 10000 MFI for 30H9B8F9 VH_P1/VL hIgG1 (antibody, V domains shown, PTM-derisked chimeric, hIgG1; that P1 is the N=>S version follows from the humanized .p1 chains; also called 30H9B8F9.p1 hIgG1) VH: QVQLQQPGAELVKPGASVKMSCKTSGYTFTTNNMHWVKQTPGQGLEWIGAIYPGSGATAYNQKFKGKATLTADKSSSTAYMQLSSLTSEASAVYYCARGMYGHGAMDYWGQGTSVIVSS VL: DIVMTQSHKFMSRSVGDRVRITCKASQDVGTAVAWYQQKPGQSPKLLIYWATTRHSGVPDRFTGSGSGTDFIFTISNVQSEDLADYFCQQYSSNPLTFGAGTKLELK
stdout: no (0)

stdin: Does xi62G10E4G8 hIgG1 (antibody, V domains shown, chimeric, hIgG1) VH: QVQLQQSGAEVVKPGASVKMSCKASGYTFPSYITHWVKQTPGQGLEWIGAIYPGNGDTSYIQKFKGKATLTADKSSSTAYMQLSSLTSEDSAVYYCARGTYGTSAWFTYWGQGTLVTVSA VL: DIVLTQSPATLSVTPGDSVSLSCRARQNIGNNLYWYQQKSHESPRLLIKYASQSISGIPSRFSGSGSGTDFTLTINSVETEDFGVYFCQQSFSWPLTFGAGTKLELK have Top (MFI) strictly under 10000 MFI?
stdout: no (0)
